Test system: NQO1 specific enzyme activity in BEAS-2B cells (marker for NRF2 activation)
Test: BEAS-2B NQO1 MTT Assay
Type: cell-based
Conditions: Homo sapiens, BEAS-2B, 48 h, NQO1 specific activity induction, 48 hours with compound
pEC50: −log10 of the molar value. Where a name gives a salt, the structure may show the parent alone.
assay.endpoint: pEC50

Quick one: pEC50 of `CC[C@@H]1CN(Cc2cc([C@H](OCc3cn(C4COC4)nn3)C(C)(C)C(=O)O)ccc2C)S(=O)(=O)c2ccccc2O1` ?
8.00 to 9.00

pEC50 lookup needed for CC[C@@H]1CN(Cc2cc(C(OCc3cn(CC)nn3)C(F)(F)C(=O)O)ccc2C)S(=O)(=O)c2ccccc2O1 (some centres unmarked) , thanks.
6.00 to 7.00

Fill in: pEC50 of Cc1ccc(C(OCc2cn(C3COC3)nn2)C(C)(C)C(=O)O)cc1CN1C[C@@H](C)Oc2ccccc2S1(=O)=O (some centres unmarked) is ___
7.00 to 8.00

Consider the molecule `CCn1cc(CO[C@@H](c2ccc(C)c(CN3C[C@H](C)Cc4ncccc4S3(=O)=O)c2)C(C)(C)C(=O)O)nn1` and give its measured pEC50.
6.00 to 7.00

Name the recorded pEC50 for Cc1ccc(C(OCc2cn(CC3CCN(C(=O)c4ccccc4)CC3)nn2)C(C)(C)C(=O)O)cc1CN1C[C@@H](C)Oc2ccccc2S1(=O)=O (some centres unmarked) .
7.00 to 8.00

Data request, read-out pEC50, for Cc1ccc(C(OCc2cn(Cc3cccc(Cn4cc(CCO)nn4)c3)nn2)C(C)(C)C(=O)O)cc1CN1C[C@@H](C)Oc2ccccc2S1(=O)=O (some centres unmarked)
6.00 to 7.00

Report pEC50 for `CCCn1cc(CO[C@H](c2ccc(C)c(CN3C[C@H](C)Cc4ccc(C(F)(F)F)cc4S3(=O)=O)c2)C(C)(C)C(=O)O)nn1` please.
8.00 to 9.00

Recorded pEC50 of Cc1ccc(C(OCc2cn(Cc3cccc(-c4ccc(C(=O)O)cc4)c3)nn2)C(C)(C)C(=O)O)cc1CN1C[C@@H](C)Oc2ccccc2S1(=O)=O (some centres unmarked) , please.
7.00 to 8.00

# get_value(readout='pEC50', item= `CC[C@H]1Cc2ccccc2S(=O)(=O)N(Cc2cc([C@H](OCc3cn(CC)nn3)C(C)(C)C(=O)O)ccc2C)C1` )
8.00 to 9.00

Which value of pEC50 has been reported for CC(=O)N1CCC(Cn2cc(COC(c3ccc(C)c(CN4C[C@@H](C)Oc5ccccc5S4(=O)=O)c3)C(C)(C)C(=O)O)nn2)CC1 (some centres unmarked) in the records?
7.00 to 8.00

Query (molecule): `CC[C@@H]1CN(Cc2cc([C@@H](OCc3cn(CC)nn3)C(C)(C)C(=O)O)ccc2C)Cc2ccccc2O1` ; field requested: pEC50
7.00 to 8.00

I would be grateful if you could share the reported pEC50 for CCn1cc(COC(c2ccc(C)c(CN(Cc3ccccc3)S(=O)(=O)c3ccccc3)c2)C(C)(C)C(=O)O)nn1 (centres unmarked) .
7.00 to 8.00

So what's the measured pEC50 for this one? CC[C@@H]1CN(Cc2cc([C@@H](OCc3cn(C)nn3)C(C)(C)C(=O)O)ccc2C)Cc2ncccc2O1 [Example 108, Hydrochloride]
7.00 to 8.00

Quick check: pEC50 of `Cc1ccc([C@@H](OCc2cn(C)nn2)C(C)(C)C(=O)O)cc1CN1Cc2ncccc2O[C@H](C(C)C)C1` ?
7.00 to 8.00

State the recorded pEC50 for this entry: Cc1ccc(C(OCc2cn(Cc3cccc(Cn4cc(C(=O)O)nn4)c3)nn2)C(C)(C)C(=O)O)cc1CN1C[C@@H](C)Oc2ccccc2S1(=O)=O (some centres unmarked)
6.00 to 7.00

Please give the measured pEC50 for this molecule: Cc1ccc(C(OCc2cn(Cc3cccc(Cn4cc(CCC(=O)O)nn4)c3)nn2)C(C)(C)C(=O)O)cc1CN1C[C@@H](C)Oc2ccccc2S1(=O)=O (some centres unmarked)
6.00 to 7.00

Which value of pEC50 has been reported for `CCCn1cc(CO[C@H](c2ccc(C)c(CN3C[C@@H](C)Cc4ccc(F)cc4S3(=O)=O)c2)C(C)(C)C(=O)O)nn1` in the records?
> 9.00

Item Cc1ccc(C(OCc2cn(Cc3ccc(CN=[N+]=[N-])cc3)nn2)C(C)(C)C(=O)O)cc1CN1C[C@@H](C)Oc2ccccc2S1(=O)=O (some centres unmarked) has what recorded pEC50?
8.00 to 9.00

Could you share which pEC50 value was measured for `CCn1cc(CO[C@H](c2ccc(C)c(CN3C[C@@H](C)Cc4ccccc4S3(=O)=O)c2)C(C)(C)C(=O)O)nn1` ?
> 9.00

What value of measured pEC50 is listed for `CCn1cc(CO[C@@H](c2ccc(C)c(CN3C[C@H](C)Cc4ccncc4S3(=O)=O)c2)C(C)(C)C(=O)O)nn1` ?
5.00 to 6.00

Query: pEC50; subject: `CCn1cc(CO[C@H](c2ccc(C)c(CN3C[C@@H](C)Cc4ccncc4S3(=O)=O)c2)C(C)(C)C(=O)O)nn1`
> 9.00

Which pEC50 value is on record for `CC[C@H]1Cc2cccnc2CN(Cc2cc([C@H](OCc3cn(CC)nn3)C(C)(C)C(=O)O)ccc2C)C1` ?
7.00 to 8.00

Reported pEC50 for `CCCn1cc(CO[C@H](c2ccc(C)c(CN3C[C@H](C)Cc4ccc(F)cc4S3(=O)=O)c2)C(C)(C)C(=O)O)nn1` : what is it?
8.00 to 9.00

Given the molecule Cc1ccc(C(OCc2cn(C3CCCCC3)nn2)C(C)(C)C(=O)O)cc1CN1C[C@@H](C)Oc2ccccc2S1(=O)=O (some centres unmarked) , what is its reported pEC50?
8.00 to 9.00

Quick one: pEC50 of CC[C@@H]1CN(Cc2cc(C(OCc3cn(CC)nn3)C(C)(C)C(=O)O)ccc2C)S(=O)(=O)c2ccccc2O1 (some centres unmarked) ?
> 9.00

# query: pEC50 of entry CCCn1cc(COC(c2ccc(C)c(CN3CC(C)(C)Oc4ccccc4S3(=O)=O)c2)C(C)(C)C(=O)O)nn1 (centres unmarked)
8.00 to 9.00

* * *

System: NQO1 specific enzyme activity in BEAS-2B cells (marker for NRF2 activation)
Assay: BEAS-2B NQO1 MTT Assay
Type: cell-based
Details: Homo sapiens, BEAS-2B, 48 h, NQO1 specific activity induction, 48 hours with compound
pEC50: −log10 of the molar value. Counter-ions that a name gives are not always drawn.
For each of the molecules below, state its pEC50.

I would be grateful if you could share the reported pEC50 for Cc1ccc(C(OCc2cn(Cc3ccc(Cn4cc(COC(c5ccc(C)c(CN6C[C@@H](C)Oc7ccccc7S6(=O)=O)c5)C(C)(C)C(=O)O)nn4)cc3)nn2)C(C)(C)C(=O)O)cc1CN1C[C@@H](C)Oc2ccccc2S1(=O)=O (some centres unmarked) .
7.00 to 8.00

# pEC50 lookup, item Cc1ccc(C(OCc2cn(Cc3cccc(Cn4cc(CCCCO)nn4)c3)nn2)C(C)(C)C(=O)O)cc1CN1C[C@@H](C)Oc2ccccc2S1(=O)=O (some centres unmarked)
7.00 to 8.00

What does the record list as pEC50 for `CC[C@@H]1CN(Cc2cc([C@H](OCc3cn(CC)nn3)C(C)(C)C(=O)O)ccc2C)Cc2ccccc2O1` ?
5.00 to 6.00

Request the reported pEC50 associated with `CCn1cc(CO[C@@H](c2ccc(C)c(CN3C[C@@H](C)Cc4ncccc4S3(=O)=O)c2)C(C)(C)C(=O)O)nn1`
7.00 to 8.00

Fill in the blank: the reported pEC50 of `CC[C@@H]1CN(Cc2cc([C@@H](OCc3cn(C)nn3)C(C)(C)C(=O)O)ccc2C)S(=O)(=O)c2ncccc2O1` is ____.
8.00 to 9.00

Query (molecule): Cc1ccc(C(OCc2cn(Cc3cccc(Cn4cc(CO)nn4)c3)nn2)C(C)(C)C(=O)O)cc1CN1C[C@@H](C)Oc2ccccc2S1(=O)=O (some centres unmarked) ; field requested: pEC50
7.00 to 8.00

Give its pEC50 value. Item: Cc1ccc([C@H](OCc2cn(C)nn2)C(C)(C)C(=O)O)cc1CN1Cc2ncccc2O[C@H](C(C)C)C1 [Example 112, trifluoroacetate]
7.00 to 8.00

May I ask what pEC50 has been recorded for `CCCn1cc(CO[C@H](c2ccc(C)c(CN3C[C@@H](C)Cc4ccc(C(F)(F)F)cc4S3(=O)=O)c2)C(C)(C)C(=O)O)nn1` ?
> 9.00

# lookup: pEC50 of Cc1ccc([C@H](OCc2cn(CCOCCn3cc(CO[C@@H](c4ccc(C)c(CN5C[C@@H](C)Oc6ccccc6S5(=O)=O)c4)C(C)(C)C(=O)O)nn3)nn2)C(C)(C)C(=O)O)cc1CN1C[C@@H](C)Oc2ccccc2S1(=O)=O (relative stereo)
7.00 to 8.00

Entry Cc1ccc([C@@H](OCc2cn(CCOCCn3cc(CO[C@H](c4ccc(C)c(CN5C[C@@H](C)Oc6ccccc6S5(=O)=O)c4)C(C)(C)C(=O)O)nn3)nn2)C(C)(C)C(=O)O)cc1CN1C[C@@H](C)Oc2ccccc2S1(=O)=O (relative stereo) has what pEC50?
5.00 to 6.00

Tell me the measured pEC50 of Cc1ccc(C(OCc2cn(Cc3cccc(Br)c3)nn2)C(C)(C)C(=O)O)cc1CN1C[C@@H](C)Oc2ccccc2S1(=O)=O (some centres unmarked) , please.
> 9.00
